// data source = patent US20180271808A1

- Test system: PANC-1 cells
- Method Summary: [3H]-thymidine incorporation (proliferation / cytotoxicity) in PANC-1 cells
- Assay type: cell-based, human
- Protocol Conditions: Homo sapiens; PANC-1, MNF 0-10 μM, 24 hours, mean±SD; read-out: IC50, inhibition in cell growth
pIC50: −log10 of the molar value.
Property Name: pIC50

Compound: COc1ccc(C[C@@H](C)NC[C@H](O)c2cc(O)cc(O)c2)c2ccccc12 [MNF, (R,R′)-4′-methoxy-1-naphthyl-fenoterol]
Target Or Test System: PANC-1 cells
Property Name: pIC50
Value Reported: 6.19
